Below: a set of entries, each annotated with reported cytotoxicity at 70.5 h.
EXPERIMENT NOTES: Human HepG2 cell viability assay in 384 well format
Format: toxicity, cell-based
Set-up: dose 125 nL, time 70.5 hour; concentration not given beside the values
RECORDED CONDITIONS: HepG2 cells, read-out: Inhibition

Examples with answers:
COMPOUND	cytotoxicity at 70.5 h
CC(C)(C)c1cc(NC(=O)C2COCCO2)n(-c2ccccn2)n1 (stereo unspecified)	-0.749%
Cc1nnc2n1CCN(C(=O)c1cc(Br)c[nH]1)C2	-5.46%
COc1ccccc1N1CCCC(Nc2ncccn2)C1=O (stereo unspecified)	-3.79%
Cc1oncc1C(=O)N1CC[C@H]2[C@@H]1CCC(=O)N2CC1CC1	2.95%
Cc1cc(NC(=O)CN2CCc3c(nc(C(C)C)n3C)C2)n(C)n1	-16.7%
OCc1cn(Cc2cccc(F)c2)nn1	-12.4%
CC(Cn1ccnc1)NC(=O)NCCNC(=O)C(C)C (stereo unspecified)	16.2%
CCN1CC[C@@]2(C(=O)N(C)C)CCN(S(=O)(=O)c3ccccc3)CC[C@@H]12	-9.93%

**Query** Value lookup for cytotoxicity at 70.5 h; key = CC1(C)OCC2(CO1)CN(S(=O)(=O)c1ccc(Br)s1)C2
**Result** 4.85%

**Query** Same for Cc1nccc(-c2ccccc2)c1C(=O)N1CC[C@](C)(O)[C@H](C)C1
**Result** 13.7%

**Query** # repeat for CCCn1c(C)c(CC(=O)NCC(N)=O)c2c1CC(C)(C)CC2=O
**Result** 0.554%
